molecular target: hTREM2 (Homo sapiens, UniProt Q9NZC2); experiment: TREM2 activity by cellular Syk phosphorylation (AlphaScreen/AlphaLISA) in TREM2/DAP12-HEK cells, used for Examples 1-305; assay type: cell-based; parameters: expressed in transfected cells; conditions: HEK293 Cells
Sequence (Q9NZC2 19-230): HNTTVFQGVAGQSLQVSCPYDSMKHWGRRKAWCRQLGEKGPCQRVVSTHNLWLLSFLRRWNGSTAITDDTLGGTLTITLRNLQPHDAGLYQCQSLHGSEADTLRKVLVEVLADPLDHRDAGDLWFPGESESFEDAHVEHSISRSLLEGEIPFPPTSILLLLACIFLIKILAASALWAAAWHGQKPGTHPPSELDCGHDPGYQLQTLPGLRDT
Sequence (O43914 22-113 partner): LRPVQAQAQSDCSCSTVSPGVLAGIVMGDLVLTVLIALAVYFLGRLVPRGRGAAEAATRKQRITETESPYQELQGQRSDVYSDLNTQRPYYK
MEASURED QUANTITY: hTREM2 Emax

For orientation, consider the following solved cases.
INSERT INTO assay_data (compound, experimental_result) VALUES
  ('Cc1nc2nc([C@@H]3CCO[C@H](c4cnn(C)c4)C3)nc(C3CCC(F)(F)CC3)c2nc1C (single isomer, unassigned) [Example 175]', '++ (Emax>100 and ≤150)'),
  ('Cc1cc([C@@H]2C[C@H](c3cc4nc(C)c(C)nc4c(-c4ccc(Cl)cc4F)n3)CCO2)ccn1 (relative stereo) [Example 217]', '+++ (Emax>150 and ≤250)'),
  ('Cc1cc([C@@H]2CN(c3nc4nc(C)cnc4c([C@H]4C[C@H](C(F)(F)F)C4)n3)CCO2)cnn1 [Example 281]', '+++ (Emax>150 and ≤250)'),
  ('Cc1nc2nc(N3CCO[C@@H](c4cnn(C)c4)C3)nc([C@@H]3CCC(C)(C)C3)c2nc1C [Example 303]', '++ (Emax>100 and ≤150)');

[Q] Dear colleague, I am looking for the recorded hTREM2 Emax of the following compound: Cc1ccc2c(-c3ccc(Cl)cc3F)nc([C@H]3CCO[C@@H](c4cnn(C)c4)C3)nc2n1 [Example 287]
[A] +++ (Emax>150 and ≤250)

----------
target: hTREM2 (Homo sapiens, UniProt Q9NZC2); test: TREM2 activity by cellular Syk phosphorylation (AlphaScreen/AlphaLISA) in TREM2/DAP12-HEK cells, used for Examples 1-305; assay type: cell-based; design: expressed in transfected cells; settings: HEK293 Cells
Readings of EC50 for the listed compounds

INSERT INTO assay_data (compound, experimental_result) VALUES
  ('COc1cc([C@H]2C[C@@H](c3nc(-c4ccc(Cl)cc4F)c4nc(C)c(C)nc4n3)CCO2)ccn1 (single isomer, unassigned)', '≤ 50 nM');

[Q] I'd like to know its EC50. The compound in question is Cc1nc2nc(N3CCO[C@@H](c4cnn(C5CC5)c4)C3)nc([C@H]3C[C@H](C(F)F)C3)c2nc1C
[A] ≤ 50 nM

[Q] Again, but for Cc1ccc(-c2nc(N3CCO[C@@H](c4cnn(C5CC5)c4)C3)nc3nc(C)c(C)nc23)c(F)c1
[A] ≤ 50 nM

[Q] Can you check Cc1nc2nc([C@@H]3CCO[C@H](c4cnn(C)c4)C3)cc(-c3ccc(Cl)cc3F)c2nc1C next?
[A] 500 to 3000 nM

[Q] Then Cc1nc2nc(N3CC[C@H](C(F)F)C3)nc(-c3ccc(F)cc3F)c2nc1C ?
[A] 500 to 3000 nM

[Q] Do the same for Cc1ccc2c(-c3ccc(Cl)cc3F)nc([C@@H]3CCO[C@H](c4cnn(C)c4)C3)nc2n1 please
[A] ≤ 50 nM

[Q] Another compound: Cc1cc([C@H]2CN(c3nc(-c4ccc(C(F)(F)F)nc4)c4nc(C)c(C)nc4n3)CCO2)cnn1
[A] ≤ 50 nM

[Q] Here is the next compound: Cc1nc2nc(N3CCO[C@@H](c4cnn(C)c4)C3)nc([C@@H]3C[C@H]3C(F)(F)F)c2nc1C
[A] 500 to 3000 nM

----------
biological target: UniProtKB Q9NZC2; assay: TREM2 activity by cellular Syk phosphorylation (AlphaScreen/AlphaLISA) in TREM2/DAP12-HEK cells, used for Examples 1-305; format: cell-based; design: expressed in transfected cells; details: HEK293 Cells
pEC50: −log10 of the molar value.
MEASURED QUANTITY: pEC50

[Q] I am curious: what pEC50 value has been reported for Cc1cc([C@H]2CN(c3cc4nc(C)c(C)nc4c([C@H]4C[C@H](C(F)(F)F)C4)n3)CCO2)ccn1 ?
[A] 6.30 to 7.30

[Q] Next up: Cc1ccc2c(-c3ccc(Cl)cc3F)nc(N3CCO[C@@H](c4cnn(C)c4)C3)cc2c1
[A] 4.00 to 5.52

----------
This listing pairs compounds with measured pEC50.
target: hTREM2 (Homo sapiens, UniProt Q9NZC2); assay: TREM2 activity by cellular Syk phosphorylation (AlphaScreen/AlphaLISA) in TREM2/DAP12-HEK cells, used for Examples 1-305; format: cell-based; parameters: expressed in transfected cells; conditions: HEK293 Cells
pEC50: −log10 of the molar value.

[Q] Entry Cc1nc2nc([C@@H]3CCO[C@@H](c4cnn(C)c4)C3)nc([C@H]3C[C@H](C(F)(F)F)C3)c2nc1C (single isomer, unassigned) : reported pEC50 = ?
[A] 5.52 to 6.30

[Q] Next compound up: Cc1ncc([C@@H]2CN(c3nc(-c4ccc(Cl)cc4F)c4nc(C)c(C)nc4n3)CCO2)cn1 (single isomer, unassigned)
[A] ≥ 7.30

[Q] Cc1nc2nc(N3CCO[C@@H](c4cnn(C)c4)C3)nc([C@H]3CC[C@@H](C(F)(F)F)CC3)c2nc1C , same question.
[A] 6.30 to 7.30

[Q] Follow-up item: Cc1cnc2c(-c3ccc(Cl)cc3F)cc(N3CCO[C@@H](c4cnn(C)c4)C3)nc2n1
[A] 6.30 to 7.30

[Q] CN1Cc2c(cc(N3CCO[C@@H](c4cnn(C)c4)C3)nc2[C@H]2C[C@@H](C(F)(F)F)C2)C1=O , same question.
[A] 4.00 to 5.52

[Q] Also Cc1cc2c(-c3ccc(Cl)cc3F)nc([C@H]3CCO[C@@H](c4cnn(C)c4)C3)nc2nc1C (single isomer, unassigned) ?
[A] ≥ 7.30

----------
target: hTREM2 (Homo sapiens, UniProt Q9NZC2); assay: TREM2 agonist potency by Syk phosphorylation (AlphaLisa) in HEK293T-hTREM2 cells, used for Examples 306-429; assay type: cell-based; design: expressed in transfected cells; host or cells: HEK293T (HEK293T-hTREM2 cells); settings: HEK293 Cells
pEC50: −log10 of the molar value.
MEASURED QUANTITY: pEC50

[Q] Form field: reported pEC50 of Cc1nc2nc(N3C[C@H](C)O[C@@H](c4cnn(C5CC5)c4)C3)nc(-c3ccc(Cl)cc3F)c2nc1C (racemic)
[A] ≥ 7.30

----------
target: hTREM2 (Homo sapiens, UniProt Q9NZC2); experiment: TREM2 activity by cellular Syk phosphorylation (AlphaScreen/AlphaLISA) in TREM2/DAP12-HEK cells, used for Examples 1-305; assay type: cell-based; design: expressed in transfected cells; conditions: HEK293 Cells
MEASURED QUANTITY: hTREM2 Emax

Solved cases below.
INSERT INTO measurements (compound, assayed_system, measured_quantity, experimental_result) VALUES
  ('Cc1cc([C@H]2CN(c3nc4nc(C)cnc4c([C@H]4C[C@@H](C(F)(F)F)C4)n3)CCO2)ccn1', 'hTREM2 (Homo sapiens, UniProt Q9NZC2)', 'hTREM2 Emax', '++ (Emax>100 and ≤150)'),
  ('Cc1nc2nc([C@H]3CCO[C@H](c4cnn(C)c4)C3)cc(-c3ccc(F)cc3F)c2nc1C', 'hTREM2 (Homo sapiens, UniProt Q9NZC2)', 'hTREM2 Emax', '+++ (Emax>150 and ≤250)'),
  ('Cc1nc2nc([C@H]3CCO[C@@H](c4cnn(C)c4)C3)nc([C@H]3C[C@H](C(F)(F)F)C3)c2nc1C (single isomer, unassigned)', 'hTREM2 (Homo sapiens, UniProt Q9NZC2)', 'hTREM2 Emax', '+++ (Emax>150 and ≤250)'),
  ('Cc1cc([C@@H]2CN(c3nc4nc(C)c(C)nc4c([C@H]4C[C@H](C(F)(F)F)C4)n3)CCO2)cnn1', 'hTREM2 (Homo sapiens, UniProt Q9NZC2)', 'hTREM2 Emax', '+++ (Emax>150 and ≤250)'),
  ('Cc1ccc(-c2cc([C@H]3CCO[C@@H](c4cnn(C)c4)C3)nc3nc(C)c(C)nc23)c(F)c1 (single isomer, unassigned)', 'hTREM2 (Homo sapiens, UniProt Q9NZC2)', 'hTREM2 Emax', '+++ (Emax>150 and ≤250)'),
  ('Cc1ccc2c(-c3ccc(F)cc3F)nc([C@H]3CCO[C@@H](c4cnn(C)c4)C3)nc2n1', 'hTREM2 (Homo sapiens, UniProt Q9NZC2)', 'hTREM2 Emax', '++ (Emax>100 and ≤150)'),
  ('Cc1ccc(-c2nc(N3CCO[C@@H](c4cnn(C)c4)C3)nc3nc(C)c(C)nc23)cn1', 'hTREM2 (Homo sapiens, UniProt Q9NZC2)', 'hTREM2 Emax', '+++ (Emax>150 and ≤250)'),
  ('Cc1nc2nc([C@@H]3CCO[C@H](c4cnn(C)c4)C3)nc(-c3ccc(Cl)cc3F)c2nc1C (single isomer, unassigned) [Example 177]', 'hTREM2 (Homo sapiens, UniProt Q9NZC2)', 'hTREM2 Emax', '+++ (Emax>150 and ≤250)'),
  ('Cc1ccc(-c2nc([C@@H]3CCO[C@H](c4cnn(C)c4)C3)nc3nc(C)c(C)nc23)c(F)c1 (single isomer, unassigned)', 'hTREM2 (Homo sapiens, UniProt Q9NZC2)', 'hTREM2 Emax', '+++ (Emax>150 and ≤250)'),
  ('Cc1ncc([C@@H]2C[C@H](c3nc(-c4ccc(Cl)cc4F)c4nc(C)c(C)nc4n3)CCO2)cn1', 'hTREM2 (Homo sapiens, UniProt Q9NZC2)', 'hTREM2 Emax', '++ (Emax>100 and ≤150)');

[Q] So what does the record say about hTREM2 Emax for Cc1cnc2c(-c3ccc(Cl)cc3F)nc([C@@H]3CCO[C@H](c4cnn(C)c4)C3)cc2n1 ?
[A] +++ (Emax>150 and ≤250)

[Q] # iterate: Cc1nc2nc(N3CCO[C@@H](c4cnn(C)c4)C3)nc(C34CC(C(F)(F)F)(C3)C4)c2nc1C
[A] +++ (Emax>150 and ≤250)
